# GI50 annotations
target_or_test_system: Ba/F3-Del19/T790M/C797S (Homo sapiens, UniProt P00533, T790M/C797S, cells depend on it, form not given)
Sequence (P00533 with tags, fused parts or gaps DEL746-750/T790M/C797S, form open): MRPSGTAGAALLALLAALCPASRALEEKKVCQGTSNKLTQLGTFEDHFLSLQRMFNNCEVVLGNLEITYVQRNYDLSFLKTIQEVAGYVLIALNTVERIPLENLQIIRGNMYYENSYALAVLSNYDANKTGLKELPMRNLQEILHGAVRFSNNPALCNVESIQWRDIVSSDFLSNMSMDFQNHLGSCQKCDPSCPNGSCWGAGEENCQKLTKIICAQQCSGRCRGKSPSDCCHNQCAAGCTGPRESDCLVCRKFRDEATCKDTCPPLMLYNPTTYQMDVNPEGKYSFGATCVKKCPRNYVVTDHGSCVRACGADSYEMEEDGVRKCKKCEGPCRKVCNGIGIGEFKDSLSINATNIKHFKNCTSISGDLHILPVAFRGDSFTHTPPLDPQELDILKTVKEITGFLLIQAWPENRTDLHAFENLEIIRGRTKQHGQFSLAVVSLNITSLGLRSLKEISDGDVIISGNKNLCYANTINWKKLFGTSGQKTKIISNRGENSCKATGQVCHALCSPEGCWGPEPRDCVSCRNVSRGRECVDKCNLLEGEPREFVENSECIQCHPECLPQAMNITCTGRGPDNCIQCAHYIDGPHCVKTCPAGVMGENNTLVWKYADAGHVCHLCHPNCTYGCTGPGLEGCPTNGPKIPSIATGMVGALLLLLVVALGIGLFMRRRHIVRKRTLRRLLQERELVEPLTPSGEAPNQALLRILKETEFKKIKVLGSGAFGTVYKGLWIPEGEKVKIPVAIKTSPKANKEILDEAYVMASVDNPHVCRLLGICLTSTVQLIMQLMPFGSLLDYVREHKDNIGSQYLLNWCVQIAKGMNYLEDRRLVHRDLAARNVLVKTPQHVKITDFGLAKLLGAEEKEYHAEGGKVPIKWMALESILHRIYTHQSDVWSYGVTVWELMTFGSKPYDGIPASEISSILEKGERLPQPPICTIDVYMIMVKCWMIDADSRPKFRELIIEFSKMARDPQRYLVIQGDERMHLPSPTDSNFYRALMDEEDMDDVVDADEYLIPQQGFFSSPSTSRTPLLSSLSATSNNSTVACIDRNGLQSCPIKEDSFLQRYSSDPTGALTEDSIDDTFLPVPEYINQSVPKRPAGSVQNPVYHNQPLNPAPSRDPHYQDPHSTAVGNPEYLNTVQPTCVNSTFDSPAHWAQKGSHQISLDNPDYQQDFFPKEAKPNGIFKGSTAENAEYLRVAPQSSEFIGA
measurement_description: Ba/F3-Del19/T790M/C797S cells proliferation assay (CellTiter Glo)
Type: cell-based
condition_notes: cell proliferation, 72 h, class symbols; read-out: Ba/F3-Del19/T790M/C797S IC50

>>> assay_value("Cc1cc(Nc2ncc(Cl)c(Nc3ccccc3P(C)(C)=O)n2)ccc1N1CC2(CCC(NC3CC3)CC2)C1")
"≤ 10 nM"
>>> assay_value("Cc1cc(Nc2ncc(Cl)c(Nc3ccccc3P(C)(C)=O)n2)ccc1N1CC2(CCC(N)CC2)C1")
"10 to 50 nM"
>>> assay_value("CN(C)C1CC2(CCN(c3ccc(Nc4ncc(Cl)c(Nc5ccccc5P(C)(C)=O)n4)cc3C(F)(F)F)CC2)C1")
"10 to 50 nM"
>>> assay_value("Cc1cc(Nc2nc(Nc3ccccc3P(C)(C)=O)c3nc[nH]c3n2)ccc1N1CCC2(CC1)CC(N)C2")
"> 50 nM"
>>> assay_value("CNC1CC2(CCN(c3ccc(Nc4ncc(Cl)c(Nc5ccccc5P(C)(C)=O)n4)cc3Cl)CC2)C1")
"10 to 50 nM"
>>> assay_value("CN(C)C1CCC2(CC1)CN(c1ccc(Nc3ncc(Cl)c(Nc4ccccc4P(C)(C)=O)n3)cc1)C2")
"≤ 10 nM"

Could you tell me which GI50 is on file for CP(C)(=O)c1ccccc1Nc1ccnc(Nc2ccc(N3CCC4(CC3)CC(N)C4)c(Cl)c2)n1 ?
> 50 nM

What measured GI50 goes with CN(C)C1CCC2(CC1)CN(c1ccc(Nc3ncc(Cl)c(Nc4ccccc4P(C)(C)=O)n3)cc1C1CC1)C2 ?
10 to 50 nM

Recorded GI50 for CP(C)(=O)c1ccccc1Nc1nc(Nc2ccc(N3CC4(CC(N)C4)C3)c(Cl)c2)ncc1Cl , please?
10 to 50 nM

Any idea what GI50 was measured for Cc1cc(Nc2ncc(F)c(Nc3ccccc3P(C)(C)=O)n2)ccc1N1CC2(CC(N)C2)C1 ?
> 50 nM

Look at this molecule and give its reported GI50. Cc1cc(Nc2ncc(C#N)c(Nc3ccccc3P(C)(C)=O)n2)ccc1N1CCC2(CC1)CC(N)C2
> 50 nM

---

Each entry below lists one item and its recorded GI50 value.
target_or_test_system: Ba/F3-L858R/T790M/C797S (Homo sapiens, UniProt P00533, T790M/C797S/L858R, cells depend on it)
Sequence (P00533 whole entry T790M/C797S/L858R): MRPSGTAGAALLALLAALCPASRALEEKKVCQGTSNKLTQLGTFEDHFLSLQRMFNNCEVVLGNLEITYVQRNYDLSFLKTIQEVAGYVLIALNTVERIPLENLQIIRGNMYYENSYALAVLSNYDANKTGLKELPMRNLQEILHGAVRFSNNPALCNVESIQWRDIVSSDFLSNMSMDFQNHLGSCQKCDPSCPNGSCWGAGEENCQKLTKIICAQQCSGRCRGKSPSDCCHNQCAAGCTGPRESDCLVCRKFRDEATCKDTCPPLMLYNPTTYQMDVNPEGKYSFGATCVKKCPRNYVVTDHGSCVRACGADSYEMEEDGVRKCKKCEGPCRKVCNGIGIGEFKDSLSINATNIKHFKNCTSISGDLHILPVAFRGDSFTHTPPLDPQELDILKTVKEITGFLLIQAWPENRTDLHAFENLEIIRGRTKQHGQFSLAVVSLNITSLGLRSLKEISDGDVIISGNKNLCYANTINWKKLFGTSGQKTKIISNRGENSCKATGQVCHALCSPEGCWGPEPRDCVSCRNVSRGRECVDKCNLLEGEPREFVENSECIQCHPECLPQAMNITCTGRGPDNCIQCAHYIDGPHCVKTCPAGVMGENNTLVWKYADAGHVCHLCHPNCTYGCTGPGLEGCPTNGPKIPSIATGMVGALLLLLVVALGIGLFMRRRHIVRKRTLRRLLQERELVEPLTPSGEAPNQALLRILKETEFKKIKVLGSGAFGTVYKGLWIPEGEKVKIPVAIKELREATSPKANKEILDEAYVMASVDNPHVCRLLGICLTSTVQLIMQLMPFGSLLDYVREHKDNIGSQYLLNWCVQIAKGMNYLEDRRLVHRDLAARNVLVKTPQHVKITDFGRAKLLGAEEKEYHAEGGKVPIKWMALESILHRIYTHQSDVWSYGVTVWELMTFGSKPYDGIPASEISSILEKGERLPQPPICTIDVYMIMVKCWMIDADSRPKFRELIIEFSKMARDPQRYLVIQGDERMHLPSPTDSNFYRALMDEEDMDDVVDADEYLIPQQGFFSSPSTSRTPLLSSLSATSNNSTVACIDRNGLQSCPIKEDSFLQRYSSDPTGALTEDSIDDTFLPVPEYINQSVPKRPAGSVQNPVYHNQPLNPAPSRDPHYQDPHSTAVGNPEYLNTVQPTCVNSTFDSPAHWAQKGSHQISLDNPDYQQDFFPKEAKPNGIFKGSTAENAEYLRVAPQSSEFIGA
measurement_description: Ba/F3-L858R/T790M/C797S cells proliferation assay (CellTiter Glo)
Assay type: cell-based
condition_notes: cell proliferation, 72 h, class symbols; read-out: Ba/F3-L858R/T790M/C797S IC50

# count of solved cases: 5
>>> assay_value("CP(C)(=O)c1ccccc1Nc1nc(Nc2ccc(N3CC4(CC(N)C4)C3)c(Cl)c2)ncc1Cl")
"0.01 to 0.05 µM"
>>> assay_value("Cc1cc(Nc2ncc(C#N)c(Nc3ccccc3P(C)(C)=O)n2)ccc1N1CCC2(CC1)CC(N)C2")
"> 0.05 µM"
>>> assay_value("CP(C)(=O)c1ccccc1Nc1nc(Nc2ccc(N3CC4(CCC(NCCO)CC4)C3)c(Cl)c2)ncc1Cl")
"0.01 to 0.05 µM"
>>> assay_value("Cc1cc(Nc2ncc(Cl)c(Nc3ccccc3P(C)(C)=O)n2)ccc1N1CC2(CCC(NC3CC3)CC2)C1")
"0.01 to 0.05 µM"
>>> assay_value("COc1cnc(Nc2ccc(N3CCC4(CC3)CC(N)C4)c(C)c2)nc1Nc1ccccc1P(C)(C)=O")
"> 0.05 µM"

What value of GI50 has been recorded for this entry: CP(C)(=O)c1ccccc1Nc1nc(Nc2ccc(N3CC4(CCC(N)CC4)C3)c(Cl)c2)ncc1Cl
0.01 to 0.05 µM

I am curious: what GI50 value has been reported for Cc1cc(Nc2nc(Nc3ccccc3P(C)(C)=O)c3nc[nH]c3n2)ccc1N1CCC2(CC1)CC(N)C2 ?
> 0.05 µM

---

Below is a list of entries, each paired with its recorded Cmax value.
measurement_description: Pharmacokinetic assay, oral administration
Assay type: in vivo
condition_notes: rat, male SD rats, p.o. 5 mg/kg, plasma, formulation differs per row
# number only, unit ng/mL dropped from output

Would you please look over these solved cases?
>>> assay_value("Cc1cc(Nc2ncc(Cl)c(Nc3ccccc3P(C)(C)=O)n2)ccc1N1CC2(CCC(NC3CC3)CC2)C1 [Example 4]")
71.3
>>> assay_value("CP(C)(=O)c1ccccc1Nc1nc(Nc2ccc(N3CCC4(CC3)CC(N)C4)c(Cl)c2)ncc1Cl [Example 8]")
388
>>> assay_value("CCN1CC2(C1)CN(c1ccc(Nc3ncc(Cl)c(Nc4ccccc4P(C)(C)=O)n3)cc1C)C2 [Comparative compound B, reference compound]")
67.2

What value of Cmax has been recorded for this entry: CN(C)C1CCC2(CC1)CN(c1ccc(Nc3ncc(Cl)c(Nc4ccccc4P(C)(C)=O)n3)cc1Cl)C2 [Example 10]
35.1

Looking for the measured Cmax of Cc1cc(Nc2ncc(Cl)c(Nc3ccccc3P(C)(C)=O)n2)ccc1N1CCC2(CC1)CC(N(C)C)C2 [Example 15] , can you help?
575

For CN(C)C1CC2(CCN(c3ccc(Nc4ncc(Cl)c(Nc5ccccc5P(C)(C)=O)n4)cc3Cl)CC2)C1 [Example 6] , what is its reported Cmax?
741

---

target_or_test_system: Ba/F3-Del19/T790M/C797S (Homo sapiens, UniProt P00533, T790M/C797S, cells depend on it, form not given)
measurement_description: Ba/F3-Del19/T790M/C797S cells proliferation assay (CellTiter Glo)
Type: cell-based
condition_notes: cell proliferation, 72 h, numeric values; read-out: Ba/F3-Del19/T790M/C797S IC50
Where a name gives a salt, the structure may show the parent alone.
outcome_measure: GI50 (nM)

>>> assay_value("CP(C)(=O)c1ccccc1Nc1nc(Nc2ccc(N3CCC4(CC3)CC(N)C4)cc2)ncc1Cl [Example 16, hydrochloride]")
8
>>> assay_value("CN(C)[C@@H]1CCN(C2CC3(CCN(c4ccc(Nc5ncc(Cl)c(Nc6ccccc6P(C)(C)=O)n5)cc4Cl)CC3)C2)C1")
14.7
>>> assay_value("CP(C)(=O)c1ccccc1Nc1nc(Nc2ccc(N3CC4(CCC(NCCO)CC4)C3)c(Cl)c2)ncc1Cl")
24.4
>>> assay_value("CP(C)(=O)c1ccccc1Nc1nc(Nc2ccc(N3CCC4(CC3)CC(N)C4)c(F)c2)ncc1Cl")
16.9
>>> assay_value("Cc1cc(Nc2ncc(Cl)c(Nc3ccccc3P(C)(C)=O)n2)ccc1N1CCC2(CC1)CC(N)C2")
13.2

(I) Cc1cc(Nc2ncc(Cl)c(Nc3ccccc3P(C)(C)=O)n2)ccc1N1CC2(CC(N)C2)C1
(II) CP(C)(=O)c1ccccc1Nc1nc(Nc2ccc(N3CC4(CCC(N)CC4)C3)c(Cl)c2)ncc1Cl
(III) CP(C)(=O)c1ccccc1Nc1nc(Nc2ccc(N3CCC4(CC3)CC(N3CCCC3)C4)c(Cl)c2)ncc1Cl
Place the items in sequence of falling GI50. Quick reminder: the answer is the labels in the order asked.
II, I, III
(II: 26.3 nM, I: 18 nM, III: 9.7 nM)

---

measurement_description: Pharmacokinetic assay, oral administration
Assay type: in vivo
condition_notes: rat, male SD rats, p.o. 10 mg/kg, plasma, formulation 5% DMSO/5% Solutol/90% normal saline
outcome_measure: Cmax (ng/mL)
Give the value, in units of ng/mL, as a plain number.

Endpoint output: Cmax of Cc1cc(Nc2ncc(Cl)c(Nc3ccccc3P(C)(C)=O)n2)ccc1N1CC2(CCC(N(C)C)CC2)C1 [Example 1] . Value?
141

---

target_or_test_system: EGFR L858R/T790M/C797S (Homo sapiens, UniProt P00533, C797S/L858R/T790M)
measurement_description: Kinase assay (mobility shift), EGFR L858R/T790M/C797S
Type: biochemical
condition_notes: numeric values
pIC50: −log10 of the molar value.
outcome_measure: pIC50

>>> assay_value("Cc1cc(Nc2ncc(Cl)c(Nc3ccccc3P(C)(C)=O)n2)ccc1N1CCC2(CC1)CC(N(C)C)C2 [Example 15]")
9.15

(I) Cc1cc(Nc2nc(Nc3ccccc3P(C)(C)=O)c3nc[nH]c3n2)ccc1N1CCC2(CC1)CC(N)C2 [Example 21]
(II) CP(C)(=O)c1ccccc1Nc1nc(Nc2ccc(N3CC4(CCC(N)CC4)C3)c(Cl)c2)ncc1Cl [Example 11]
(III) COc1cnc(Nc2ccc(N3CC4(CC(N)C4)C3)c(C)c2)nc1Nc1ccccc1P(C)(C)=O [Example 23]
Order by pIC50, ascending. Give the order by naming the labels one after another as requested.
III, II, I
(III: 7.96, II: 8.59, I: 9.05)

---

target_or_test_system: Ba/F3-Del19/T790M/C797S (Homo sapiens, UniProt P00533, T790M/C797S, cells depend on it, form not given)
measurement_description: Ba/F3-Del19/T790M/C797S cells proliferation assay (CellTiter Glo)
Type: cell-based
condition_notes: cell proliferation, 72 h, numeric values; read-out: Ba/F3-Del19/T790M/C797S IC50
Method: a) The medium was preheated in a 37°0 C. water bath in advance. b) Remove the cryogenic vials from the liquid nitrogen tank, quickly put it into a 37° C. water bath, and completely melt it in 1 min. […] c) The Luminescence signal value was read using a PerkinElmer reader. […] Data were analyzed using GraphPad Prism 6.0 software to obtain a fitted curve of compound activity. […] X: The log of the concentration of the compound; Y: Luminescence value. […]
Parameter: GI50. Scope: all listed entries.
Kindly answer with a numeric value in nM, unit omitted.

Below, each entry is followed by its recorded GI50 result.
>>> assay_value("CN(C)C1CCC2(CC1)CN(c1ccc(Nc3ncc(Cl)c(Nc4ccccc4P(C)(C)=O)n3)cc1Cl)C2")
10.2
>>> assay_value("Cc1cc(Nc2ncc(Cl)c(Nc3ccccc3P(C)(C)=O)n2)ccc1N1CC2(CCC(N(C)C)CC2)C1")
5.8
>>> assay_value("CP(C)(=O)c1ccccc1Nc1nc(Nc2ccc(N3CCC4(CC3)CC(N)C4)c(Cl)c2)ncc1Cl")
21.5

// below: GI50 requested for another compound
Looking for the measured GI50 of Cc1cc(Nc2ncc(Cl)c(Nc3ccccc3P(C)(C)=O)n2)ccc1N1CCC2(CC1)CC(N(C)C)C2 , can you help?
15.5
